tested on: CRL-7250; test: Cytotoxic Profiling of Annotated Libraries Using Quantitative High-Throughput Screening (AID 1296008); details: Five cell lines viability, CellTiter-Glo ATP luminescence, 48-72 h; further: nearly all actives have a fitted effect of over 60% in size
Inconclusive results are not listed. Activity calls are given as the source filed them. The call rests on the fitted dose curve; in most records, active means well fitted inhibition curve with a large enough effect; inconclusive means small, poorly fitted or top-dose-only effect; inactive means flat fitted curve, though single readings scatter.
Please state which outcome applies, choosing from active, inactive

Short answer needed: outcome of this test for Cc1c(CN2CCN(C(=O)C(C)C)CC2)sc2c(N3CCOCC3)nc(-c3cnc(N)nc3)nc12 ? active

Any idea what this test logged for COc1ccc(-c2ccc3c(N4CCOC[C@H]4C)nc(N4CCOC[C@H]4C)nc3n2)cc1CO ? active

Please share the test call associated with CCCCNc1cc(C(=O)O)cc(S(N)(=O)=O)c1Oc1ccccc1 . inactive

Identify the outcome logged in this assay for the compound shown: CCOc1cc(C(=O)Nc2ccc(Cl)c(-c3nc4ccccc4[nH]3)c2)cc(OCC)c1OCC inactive

What classification did NC(N)=NC(=O)c1nc(Cl)c(N)nc1N end up with in this test? inactive

Call for entry C[C@H](NC(=O)Cc1cc(F)cc(F)c1)C(=O)N[C@@H]1C(=O)N(C)c2ccccc2-c2ccccc21 : inactive

Please state the recorded outcome for this compound: CCCn1c(=O)c2[nH]c(C34CC5CC3C[C@@H](C5)C4)nc2n(CCC)c1=O inactive

Per the assay record, what outcome was assigned to CCN(CC)CCCC(C)Nc1ccnc2cc(Cl)ccc12 (stereo not drawn) ? inactive

###

assay: Quantitative High-Throughput drug screen in 47 multiple myeloma cell lines against the NCATS MIPE library collection: LP1_DSMZ cell viability assay (AID 1918982); details: LP1 myeloma viability, CellTiter-Glo ATP luminescence, 48 h; series mostly up to 45.8 µM; further: nearly all actives have a fitted effect of over 35% in size
Results filed as inconclusive are left out. Activity calls are given as the source filed them. Calls come from the whole dose curve; as a rule, active = well fitted cell-killing curve with a large enough effect; inconclusive = small, poorly fitted or top-dose-only effect, or effect the other way; inactive = no such curve, though single readings can be large or run the other way.
Your answer must be one of the following: t (active), f (inactive)

Entry Cn1c(=O)c(F)c(Nc2ccc(I)cc2F)c2c(=O)n(C[C@@H](O)CO)cnc21 : call = ? f

Each molecule tested received a call. Report the one for Cc1cccc(-c2nn(C(=S)Nc3ccccc3)cc2-c2ccnc3ccccc23)n1 . t

Status in this test for CN(C)c1ccc(Nc2nc(N)n(C(=O)c3c(F)cccc3F)n2)cc1 ? t

Returns: the outcome recorded for C1COC(NC(C2CC2)C2CC2)=N1 in this assay. f

I'd appreciate the recorded outcome for O=C(C=Cc1ccc(/C=C/C(=O)Nc2ccc(C3=NCCN3)cc2)cc1)Nc1ccc(C2=NCCN2)cc1 from this test. f

Dear colleague, could you share the recorded outcome for CCCc1nc2c(C)cc(-c3nc4ccccc4n3C)cc2n1Cc1ccc(-c2ccccc2C(=O)O)cc1 when you have a moment? f

Could you check what this test reported for Cc1cnc(NC(=O)C2=C(O)c3ccccc3S(=O)(=O)N2C)s1 ? f

Status in this test for C[C@]12CC[C@H](O)CC1=CC[C@@H]1[C@H]2CC[C@]2(C)C(c3cccnc3)=CC[C@H]12 ? f

Hello, I am checking results. What call was entered for CCOc1ccc(Cc2cc([C@@H]3O[C@H](CO)[C@@H](O)[C@H](O)[C@@H]3O)ccc2Cl)cc1 ? f

Hello, I am checking results. What call was entered for COc1nc(-c2ccc3c(c2)OCO3)n(-c2ccc(NC(=O)CSc3ccccc3)cc2)n1 ? f

Which outcome did this test record for the molecule CCn1c(-c2nonc2N)nc2cnc(Oc3cccc(NC(=O)c4ccc(OCCN5CCOCC5)cc4)c3)cc21 ? t

Can you look up the reported call for CCCS(=O)(=O)Nc1ccc(F)c(C(=O)c2c[nH]c3ncc(-c4ccc(Cl)cc4)cc23)c1F for me? t

Identify the outcome logged in this assay for the molecule shown: CCCC(CCC)C(=O)O f

Recorded test call requested for Nc1cccc(S(=O)(=O)N2CCCN(S(=O)(=O)c3ccc4c(c3)OCCO4)CC2)c1 t

Returns: the outcome recorded for Nc1ccc(S(=O)(=O)Nc2ccnn2-c2ccccc2)cc1 in this assay. f

For COc1ccc([C@@H]2CC(=O)c3c(O)cc(O[C@@H]4O[C@H](CO[C@@H]5O[C@@H](C)[C@H](O)[C@@H](O)[C@@H]5O)[C@@H](O)[C@H](O)[C@@H]4O)cc3O2)cc1O , what call appears in the results of this test? f

Hi, sorry to bother you, what did the test record for CCN(CC)CCCC(C)Nc1ccnc2cc(Cl)ccc12 (stereo not given) ? f

Dear all, I need the recorded test outcome for CCCCCCCc1ccc(CCc2cccc(O)c2C(=O)O)cc1 , thank you. t

Field: outcome | Entry: CS(=O)(=O)c1ccc(C(=O)Nc2ccc(Cl)c(-c3ccccn3)c2)c(Cl)c1 f

Tell me the recorded outcome of this test for O=c1[nH]cnc2[nH]ncc12 . f
